Target: human chorionic gonadotropin (hCG) heterodimer (Homo sapiens, UniProt P01215;P0DN86 P01215:25-116,P0DN86:21-165)
Sequence (P01215 25-116, chain 1 of 2, other chains not shown): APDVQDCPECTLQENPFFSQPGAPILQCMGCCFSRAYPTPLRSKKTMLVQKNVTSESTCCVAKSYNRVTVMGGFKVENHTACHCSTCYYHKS
Test: filter
Settings: tags: Calbiochem or Vitro Diagnostics (14,000 IU/mg); chain copies: alpha/beta heterodimer (stated); label: 32P
So I've got a bunch of binders here, and I need their binding signal values.
Answers are plain numbers, in % bound at 100 nM.

Can you give me binding signal for all of these, one by one?
1. 2nd generation ligand 10 (ssRNA, 2'-F all pyrimidines) RNA: GGGAGGACGAUGCGGAACACCAAUCUUUUUGAACGAUCCUUCGUGGGAGUGCAUCAGACGACUCGCCCGA
2. 2nd generation ligand 20 (ssRNA, 2'-F all pyrimidines) RNA: GGGAGGACGAUGCGGUGUUCAUGCUUGAUUGAACGAUCCUUUCAUAGUGUUGGUCAGACGACUCGCCCGA
3. 2nd generation ligand 9 (ssRNA, 2'-F all pyrimidines) RNA: GGGAGGACGAUGCGGUUCUACACGAUAUUUGAACGAUCCUUGUAUCUUAGGUCCCAGACGACUCGCCCGA

1: 0; 2: 8.37; 3: 9.98

Where these numbers come from: patent US5849890
